# Test system: MS2 coat protein
# method-summary: apparent Kd, MS2 coat protein; higher = weaker binding; RNA-MaP array
# condition-context: ligand present: theophylline; designed as: OFF switch for theophylline
result-type: apparent Kd (µM)
Enter your answer as a number in µM; do not include the unit.

Consider the following illustrative entries.
{"columns": ["residue-codes", "apparent Kd (µM)"],
 "data": [
  ["UCGAUGGUACCCGAUACCAGCAAUACAUCACAGACCUGAUACAUGAGGAUCACCCAUGUGUGCCCUUGGCAGCGGGUCCUGAAAA", 0.0381],
  ["GCCAAAAUACCCGAUACCAGUAUUAAUAGCACAACCUCACACAUGAGGAUCACCCAUGUAUACCCUUGGCAGCGGCCUAACAUAA", 0.102],
  ["UGUGGGUCCGAAGAUACCAGCCAGCACAGCAUGUGUUUAAACAUGAGGAUCACCCAUGUCGGCCCUUGGCAGCUUGGUUUGGACG", 0.0121]
]}

Which apparent Kd value is on record for `CGGCUCAUAAUGGAUACCAGUCCAGCAUAGAAACCUUGACACAUGAGGAUCACCCAUGUUGACCCUUGGCAGCCAUUGAUCAUAC` ?
0.133

Which apparent Kd value is on record for `GGAACGAUCACUUCUUUAUCUAAGGCGGAUACCAGUCCUCGGUUUGACCCUUGGCAGCCGACAACAUGAGGAUCACCCAUGUUCU` ?
0.0204

Which apparent Kd value is on record for `AACACACCAAAUGAUACCAGCUACAACAUGAUACAAAACCACAUGAGGAUCACCCAUGUAAGCCCUUGGCAGCAUACUACUGUAA` ?
0.0425

Which apparent Kd value is on record for `GAGCGCAGUUUACAACAUACUAACACAGAUACCAGAAAUUUUAUGUUCCCUUGGCAGCUGACAACAUGAGGAUCACCCAUGUGCU` ?
0.0177

Which apparent Kd value is on record for `GGGUUACUCUAUGAUACCAGUUCCAUGCCGAAACCUGUGUACAUGAGGAUCACCCAUGUGAACCCUUGGCAGCAUUAAUCAACUG` ?
0.258

Which apparent Kd value is on record for `UGAGAACAUGUCUUUAAGUUUACCUCUGAUACCAGAUUGAAAGGCAUCCCUUGGCAGCAGCAUACAUGAGGAUCACCCAUGUCCU` ?
0.138

====

# Tested on: MS2 coat protein
# method-summary: apparent Kd, MS2 coat protein; higher = weaker binding; RNA-MaP array; tryptophan 2.4 mM where present
# condition-context: designed as: OFF switch for tryptophan; no ligand
A collection of sequences and their measured apparent Kd
Enter your answer as a number in µM; do not include the unit.

{"columns": ["residue-codes", "test-system", "apparent Kd, µM"],
 "data": [
  ["AAUUAUCAGUCGGCCGCCACUGACACAUGAGGAUCACCCAUGUAACUUGGGUUAAAUUUAAUAAACAGGACCGGGACAAAGGCUA", "MS2 coat protein", 0.186],
  ["CUCAUCCACGCGGCCGCCACUAUUUUUAGGUGUGGGUGUGACGUAUUACAUGAGGAUCACCCAUGUAGGACCGGGCGUGGAUGAG", "MS2 coat protein", 0.385],
  ["AAUUUAUGGUUCUUGAUGUAGUAUCUAUUUCGAGGACCGGUACGGCCGCCACUCGUAAAUUACAUGAGGAUCACCCAUGUUAGCU", "MS2 coat protein", 0.0246],
  ["UAUCGUCAGACGGCCGCCACUAGAACAUGAGGAUCACCCAUGUAAGUGGCCGGUCUCCUCAUGACUAGGACCGGGUCUGACGAAU", "MS2 coat protein", 0.00869],
  ["AAUAAUAAGGCGGCCGCCACUACACAUGAGGAUCACCCAUGUCUCGCGGGCUUGCGUUGGGAAUGUAGGACCGGGCCAAUAAUAA", "MS2 coat protein", 0.0243]
]}

Request: apparent Kd, test system MS2 coat protein, entry `AACAUGAGGAUCACCCAUGUGUCCUCGAAACGAGGACCGGUACGGCCGCCACUCGAAAUAAGCUGUUGACGAAAAGUCAGCAGCA`
0.281

Request: apparent Kd, test system MS2 coat protein, entry `UUAUAAGUACCGGUCCUCAGAUCCUCAUGACGAGGACCGGUACGGCCGCCACUCGAAACAUGAGGAUCACCCAUGUAAUAAUAUU`
0.0221
